Property: MIC; scope: individual compounds
Test system: Staphylococcus epidermidis 291
Assay: Measurement of Minimum Inhibitory Concentration (MIC), QRS
Assay type: cell-based
Details: QRS, Staphylococcus epidermidis 291
Protocol: The antibacterial activities of the compounds of the present invention prepared in the above Examples against Gram-positive and Gram-negative bacteria, MRSA and QRS were tested as follows. Respective bacterial strains were inoculated into 3 ml of Fleisch extract broth (beef extract 1%, peptone 1%, NaCl 0.3%, Na2HPO4.12H2O 0.2%, pH 7.4-7.5. 10% horse serum was supplemented for Streptococcus pyogenes and S. facium) and cultured on a shaking incubator at 37° C. for 18 hours. […]
Output spec: scalar in µg/mL, unitless text.

Known MIC results, listed for orientation:
Problem: I'd like to know its MIC. The compound in question is C[C@@H](O)[C@H]1C(=O)N2C(C(=O)[O-])=C(SC3CN([C@@H](C)c4ccccc4)C3)[C@H](C)[C@H]12.[K+]
Result: 0.391

Problem: Could you do the same for COc1ccc(CN2CC(SC3=C(C(=O)[O-])N4C(=O)[C@H]([C@@H](C)O)[C@H]4[C@H]3C)C2)cc1OC.[K+] , please?
Result: 1.563

Problem: Could you do the same for COc1ccccc1CN1CC(SC2=C(C(=O)[O-])N3C(=O)[C@H]([C@@H](C)O)[C@H]3[C@H]2C)C1.[K+] , please?
Result: 0.391

Problem: Could you do the same for C[C@@H](O)[C@H]1C(=O)N2C(C(=O)[O-])=C(SC3CN(Cc4ccc(F)cc4)C3)[C@H](C)[C@H]12.[K+] , please?
Result: 0.391

Problem: Could you do the same for C[C@@H](O)[C@H]1C(=O)N2C(C(=O)[O-])=C(SC3CN(Cc4ccccc4)C3)[C@H](C)[C@H]12.[K+] , please?
Result: 0.391

Could you now consider this next compound?
Problem: I'd like to know its MIC. The compound in question is COc1ccc(CN2CC(SC3=C(C(=O)[O-])N4C(=O)[C@H]([C@@H](C)O)[C@H]4[C@H]3C)C2)cc1.[K+]
Result: 0.391
